- Test system: PKB Ser473 phosphorylation in Rat1-myr-HA-p110 beta cells
- Assay explanation: Reverse protein array, PKB Ser473 phosphorylation in Rat1-myr-HA-p110 beta cells
- Assay type: cell-based
- Reported conditions: Rattus norvegicus, 0.5 h, 30 minutes compound incubation, read-out: p-PKB/IC50_beta
Measurement type: IC50 (µM)

Result for Cc1nc(N2CCC(O)C2)ccc1-n1c(=O)n(C)c2cnc3ccc(-c4cncc(C(C)(C)O)c4)cc3c21 (centres unmarked) , tested on PKB Ser473 phosphorylation in Rat1-myr-HA-p110 beta cells, IC50: 0.197

Result for Cc1ncccc1-n1c(=O)n(C)c2cnc3ccc(-c4ccc(C(N)=O)cc4)cc3c21 , tested on PKB Ser473 phosphorylation in Rat1-myr-HA-p110 beta cells, IC50: 0.0159

Result for CCOc1ccc(-c2ccc3ncc4c(c3c2)n(-c2ncccc2C)c(=O)n4C)cn1 , tested on PKB Ser473 phosphorylation in Rat1-myr-HA-p110 beta cells, IC50: 0.546

Result for CCNc1cc(-c2ccc3ncc4c(c3c2)n(-c2ccc(N(C)CCOC)nc2C)c(=O)n4C)cnc1C , tested on PKB Ser473 phosphorylation in Rat1-myr-HA-p110 beta cells, IC50: 0.007

Result for COc1ncc(-c2ccc3ncc4c(c3c2)n(-c2ccc(C(C)(C)O)nc2C)c(=O)n4C)c(OC)n1 , tested on PKB Ser473 phosphorylation in Rat1-myr-HA-p110 beta cells, IC50: 0.132

Result for Cc1cccnc1-n1c(=O)n(C)c2cnc3ccc(-c4cnc(N)c(C(F)(F)F)c4)cc3c21 , tested on PKB Ser473 phosphorylation in Rat1-myr-HA-p110 beta cells, IC50: 0.172

Result for Cc1ccc(-n2c(=O)n(C)c3cnc4ccc(-c5cnc(N)c(C(F)(F)F)c5)cc4c32)c(C)n1 , tested on PKB Ser473 phosphorylation in Rat1-myr-HA-p110 beta cells, IC50: 0.0108

Result for COCCN(C)c1ccc(-n2c(=O)n(C)c3cnc4ccc(-c5cnc(N(C)C)nc5)cc4c32)c(C)n1 , tested on PKB Ser473 phosphorylation in Rat1-myr-HA-p110 beta cells, IC50: 0.132

Result for COCc1ncc(-c2ccc3ncc4c(c3c2)n(-c2ccc(N3CCC3)nc2C)c(=O)n4C)cc1OC(C)C , tested on PKB Ser473 phosphorylation in Rat1-myr-HA-p110 beta cells, IC50: 0.0534

[A] CNc1ncc(-c2ccc3ncc4c(c3c2)n(-c2cnc(F)cc2C)c(=O)n4C)cn1
[B] CNc1ncc(-c2ccc3ncc4c(c3c2)n(-c2ccc(NC(=O)COC)nc2C)c(=O)n4C)cn1
Looking only at measured IC50, which entry is lower, A or B ? Write down the label attached to your selection.
B
(B: 0.0163 µM, A: 0.302 µM)

----------
- Experimental system: mTOR (Homo sapiens, UniProt P42345)
- Construct: purchased Invitrogen Corporation (Carlsbad/Calif., USA) PV4753
- Sequence (P42345 1360-2549 limits assumed): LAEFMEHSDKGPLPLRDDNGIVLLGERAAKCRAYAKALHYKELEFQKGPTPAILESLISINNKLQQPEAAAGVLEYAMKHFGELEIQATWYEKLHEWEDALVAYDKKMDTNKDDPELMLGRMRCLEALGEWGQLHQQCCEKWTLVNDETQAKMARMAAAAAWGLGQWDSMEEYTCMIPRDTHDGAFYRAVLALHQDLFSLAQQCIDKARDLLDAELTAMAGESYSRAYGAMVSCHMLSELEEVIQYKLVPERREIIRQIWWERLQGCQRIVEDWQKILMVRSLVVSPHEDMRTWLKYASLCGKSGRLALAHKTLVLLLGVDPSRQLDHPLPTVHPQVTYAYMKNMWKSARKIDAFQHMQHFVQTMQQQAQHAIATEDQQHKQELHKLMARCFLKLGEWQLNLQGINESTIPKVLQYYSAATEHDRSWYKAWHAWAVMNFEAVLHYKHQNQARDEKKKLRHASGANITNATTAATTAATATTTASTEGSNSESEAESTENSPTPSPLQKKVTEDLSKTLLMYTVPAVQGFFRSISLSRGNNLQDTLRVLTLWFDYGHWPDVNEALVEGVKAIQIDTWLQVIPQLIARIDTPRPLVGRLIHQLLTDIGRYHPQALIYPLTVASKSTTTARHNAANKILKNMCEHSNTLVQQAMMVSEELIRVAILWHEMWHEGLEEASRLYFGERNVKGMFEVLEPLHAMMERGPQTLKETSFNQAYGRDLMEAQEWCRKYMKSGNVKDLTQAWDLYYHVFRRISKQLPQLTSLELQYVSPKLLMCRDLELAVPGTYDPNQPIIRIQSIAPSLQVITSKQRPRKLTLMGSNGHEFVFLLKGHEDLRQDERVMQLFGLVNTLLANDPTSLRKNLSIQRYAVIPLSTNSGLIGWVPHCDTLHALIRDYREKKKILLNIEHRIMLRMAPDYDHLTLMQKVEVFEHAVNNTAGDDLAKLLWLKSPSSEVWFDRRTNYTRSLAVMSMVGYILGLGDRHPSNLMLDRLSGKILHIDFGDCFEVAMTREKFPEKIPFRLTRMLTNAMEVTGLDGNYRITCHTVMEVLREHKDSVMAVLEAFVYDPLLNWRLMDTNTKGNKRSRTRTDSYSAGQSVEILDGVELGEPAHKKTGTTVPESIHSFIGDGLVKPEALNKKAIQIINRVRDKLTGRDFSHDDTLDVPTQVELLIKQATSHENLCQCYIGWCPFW
- Assay explanation: Biochemical assay for m-TOR by TR-FRET
- Reported conditions: read-out: mTOR/IC50
pIC50: −log10 of the molar value.
Measurement type: pIC50

Some solved entries appear below for comparison.
Result for COc1ccc(-c2ccc3ncc4c(c3c2)n(-c2cccnc2)c(=O)n4C)cc1OC [Example 5.2] , tested on mTOR (Homo sapiens, UniProt P42345), pIC50: 6.63

Result for CN(C)c1ccc(-c2ccc3ncc4c(c3c2)n(-c2cccnc2)c(=O)n4C)cn1 [Example 5.3] , tested on mTOR (Homo sapiens, UniProt P42345), pIC50: 6.60

Result for Cc1nc(F)ccc1-n1c(=O)n(C)c2cnc3ccc(-c4cnc(N)c(C(F)(F)F)c4)cc3c21 [Example 7.1] , tested on mTOR (Homo sapiens, UniProt P42345), pIC50: 8.10

Result for CNc1ncc(-c2ccc3ncc4c(c3c2)n(-c2cccnc2C)c(=O)n4C)cn1 [Example 2.2] , tested on mTOR (Homo sapiens, UniProt P42345), pIC50: 8.10

Result for Cc1nc(F)ccc1-n1c(=O)n(C)c2cnc3ccc(-c4cnc5c(ccn5C)c4)cc3c21 [Example 7.2] , tested on mTOR (Homo sapiens, UniProt P42345), pIC50: 7.77

[I] Cc1ncccc1-n1c(=O)n(C)c2cnc3ccc(-c4cnc5c(ccn5C)c4)cc3c21 [Example 2.14]
[II] CCOc1ccc(-c2ccc3ncc4c(c3c2)n(-c2ccc(F)nc2C)c(=O)n4C)cn1 [Example 7.3]
Of I and II , whose reported pIC50 is the larger number? Write down the label attached to your selection.
I
(I: 7.62, II: 7.23)

[a] Cn1c(=O)n(-c2cccnc2F)c2c3cc(-c4cnc5[nH]ccc5c4)ccc3ncc21 [Example 6.3]
[b] Cc1ncccc1-n1c(=O)n(C)c2cnc3ccc(-c4ccc(N)nc4)cc3c21 [Example 2.7]
[c] COc1ccc(-c2ccc3ncc4c(c3c2)n(-c2cccnc2C)c(=O)n4C)cn1 [Example 2.12]
[d] CNc1ccc(-c2ccc3ncc4c(c3c2)n(-c2ccc(F)nc2C)c(=O)n4C)cn1 [Example 7.4]
[e] Cc1cccnc1-n1c(=O)n(C)c2cnc3ccc(-c4cnc(N)c(C(F)(F)F)c4)cc3c21 [Example 3.12]
Please put the entries in order of rising pIC50. Show the ranking through the labels, in the order asked for.
e, c, a, b, d
